Origin of measurements: patent US9926297B2

- measured on: human muscarinic M4 receptor (Homo sapiens)
- Construct: expressed in transfected cells
- Sequence (P08173 1-479): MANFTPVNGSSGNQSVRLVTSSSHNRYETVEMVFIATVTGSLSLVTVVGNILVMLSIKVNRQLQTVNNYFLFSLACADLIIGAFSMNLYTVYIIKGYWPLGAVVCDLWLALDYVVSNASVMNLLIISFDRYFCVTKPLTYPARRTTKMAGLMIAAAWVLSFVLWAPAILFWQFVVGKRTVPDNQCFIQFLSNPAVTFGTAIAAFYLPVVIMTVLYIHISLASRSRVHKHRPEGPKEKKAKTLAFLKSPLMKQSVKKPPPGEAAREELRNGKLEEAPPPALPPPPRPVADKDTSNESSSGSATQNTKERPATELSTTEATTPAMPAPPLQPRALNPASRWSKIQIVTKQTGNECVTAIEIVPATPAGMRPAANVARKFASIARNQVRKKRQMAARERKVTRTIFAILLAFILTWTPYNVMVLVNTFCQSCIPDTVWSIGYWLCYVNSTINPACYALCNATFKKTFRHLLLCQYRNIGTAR
- procedure summary: Alphascreen Surefire phospho-ERK1/2 functional assay, M4
- Format: cell-based
- measurement setup: CHO cells stably expressing human M4; phospho-ERK1/2; * = variable results; read-out: pEC50 M4 (converted)
Output label 1 for records whose EC50 is lower than 40 nM, label 0 for records at or above 40 nM.

1) CCOC(=O)N1CCC2(CC(N3CCC(c4nccn4CC(=O)O)CC3)C2)C1 (single isomer, unassigned) [1-53 Isomer 2]; label 0
2) CCOC(=O)N1CCC2(CC(N3CCC(N4CCCC45CCOC5=O)CC3)C2)C1 (single isomer, unassigned) [2-96 Isomer 2]; label 0
3) CCOC(=O)N1CCC2(CC(N3CCC([C@@H]4CCCN4C(=O)NC4(C)COC4)CC3)C2)C1 (single isomer, unassigned) [2-36 Isomer 2]; label 1
4) CCOC(=O)N1CCC2(CC(N3CCC([C@@H]4CCCN4C(=O)N4CCCC4)CC3)C2)C1 (single isomer, unassigned) [2-32 Isomer 2]; label 1
5) CCOC(=O)N1CCC2(CC(N3CCC(c4nc(C(F)(F)F)c[nH]4)CC3)C2)C1 (single isomer, unassigned) [1-3 Isomer 2]; label 0
6) CCC(=O)N1CCCC1C1CCN(C2CC3(CCN(C(=O)OC)C3)C2)CC1 (single isomer, unassigned) [2-5 Isomer 2]; label 0
7) CCOC(=O)N1CCC2(CC(N3CCC([C@@H]4CCCN4C(=O)N(C)OC)CC3)C2)C1 (single isomer, unassigned) [2-34 Isomer 2]; label 0
8) CCOC(=O)N1CCC2(CC(N3CCC([C@@H]4CCCN4CC(F)(F)F)CC3)C2)C1 (single isomer, unassigned) [2-69 Isomer 2]; label 1
9) CCOC(=O)N1CCC2(CC(N3CCC(c4ccc[nH]c4=O)CC3)C2)C1 (single isomer, unassigned) [3-2 Isomer 1]; label 1
10) CCCn1nccc1C1CCN(C2CC3(CCN(C(=O)OC)C3)C2)CC1 (single isomer, unassigned) [1-48 Isomer 2]; label 0
11) CCOC(=O)N1CCC2(CC(N3CCC(N4CCC[C@H]4C(=O)NC)CC3)C2)C1 (single isomer, unassigned) [2-85 Isomer 2]; label 0

====

- measured on: human muscarinic M3 receptor (Homo sapiens, UniProt P20309)
- Sequence (P20309 whole entry): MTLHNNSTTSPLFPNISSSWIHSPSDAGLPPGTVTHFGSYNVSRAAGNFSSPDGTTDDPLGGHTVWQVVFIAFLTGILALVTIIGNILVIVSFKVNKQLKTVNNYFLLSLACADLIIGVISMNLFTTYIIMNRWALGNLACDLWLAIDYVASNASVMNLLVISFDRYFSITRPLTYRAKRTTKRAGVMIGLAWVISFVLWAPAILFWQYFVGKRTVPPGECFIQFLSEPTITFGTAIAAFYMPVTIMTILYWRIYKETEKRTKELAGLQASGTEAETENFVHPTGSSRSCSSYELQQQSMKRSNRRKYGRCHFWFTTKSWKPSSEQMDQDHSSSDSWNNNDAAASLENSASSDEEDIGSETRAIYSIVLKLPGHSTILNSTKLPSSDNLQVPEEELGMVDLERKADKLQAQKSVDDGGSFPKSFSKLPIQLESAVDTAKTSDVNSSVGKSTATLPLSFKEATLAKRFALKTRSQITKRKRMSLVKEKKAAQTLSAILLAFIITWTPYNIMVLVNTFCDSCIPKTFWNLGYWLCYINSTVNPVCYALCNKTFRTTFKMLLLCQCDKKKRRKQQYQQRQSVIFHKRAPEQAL
- procedure summary: Alphascreen Surefire phospho-ERK1/2 functional assay, M3
- measurement setup: CHO, read-out: % Emax cf. ACh, M3, CHO cells stably expressing human M3; relative to ACh
Each entry below carries its reported Emax.
readout name: Emax (%)

1) CCOC(=O)N1CCC2(CC(N3CCC([C@@H]4CCCN4CCC(F)(F)F)CC3)C2)C1 (single isomer, unassigned) [2-70 Isomer 2]; 3
2) CCOC(=O)N1CCC2(CC(N3CCC(c4nc(C)cn4C)CC3)C2)C1 (single isomer, unassigned) [1-12 Isomer 2]; 15
3) CCOC(=O)N1CCC2(CC(N3CCC(c4nn(C)cc4C)CC3)C2)C1 (single isomer, unassigned) [1-56 Isomer 2]; 3
4) COC(=O)N1CCC2(CC(N3CCC([C@@H]4CCCN4c4ccccn4)CC3)C2)C1 (single isomer, unassigned) [2-78 Isomer 2]; 5
5) CCOC(=O)N1CCC2(CC(N3CCC(c4nc(Cl)c[nH]4)CC3)C2)C1 (single isomer, unassigned) [1-2 Isomer 2]; 4
6) CCOC(=O)N1CCC2(CC(N3CCC([C@@H]4CCCN4C(=O)NC4(C)CCC4)CC3)C2)C1 (single isomer, unassigned) [2-35 Isomer 2]; 4
7) CCOC(=O)N1CCC2(CC(N3CCC([C@@H]4CCCN4C(=O)NC4COC4)CC3)C2)C1 (single isomer, unassigned) [2-56 Isomer 2]; 0
8) CCOC(=O)N1CCC2(CC(N3CCC(C4C(=O)NCCC4C)CC3)C2)C1 (single isomer, unassigned) [4-3 Isomer 2]; 4
9) CCOC(=O)N1CCC2(CC(N3CCC([C@@H]4CCCN4C(=O)OCCN(C)C)CC3)C2)C1 (single isomer, unassigned) [2-51 Isomer 2]; 3
10) CCOC(=O)N1CCC2(CC(N3CCC(C4CCCN4C=O)CC3)C2)C1 (single isomer, unassigned) [2-2 Isomer 2]; 16
11) CCOC(=O)N1CCC2(CC(N3CCC(n4ccc(C)n4)CC3)C2)C1 (single isomer, unassigned) [1-44 Isomer 2]; 7
12) CCOC(=O)N1CCC2(CC(N3CCC([C@@H]4CCCN4C(=O)CC(F)(F)F)CC3)C2)C1 (single isomer, unassigned) [2-53 Isomer 2]; 21
13) CCOC(=O)N1CCC2(CC(N3CCC([C@H]4CCCN4C(=O)OC)CC3)C2)C1 (single isomer, unassigned) [2-13 Isomer 2]; 24
